- SYSTEM: CaV2.2 (Homo sapiens, UniProt Q00975)
- Sequence (Q00975 whole entry): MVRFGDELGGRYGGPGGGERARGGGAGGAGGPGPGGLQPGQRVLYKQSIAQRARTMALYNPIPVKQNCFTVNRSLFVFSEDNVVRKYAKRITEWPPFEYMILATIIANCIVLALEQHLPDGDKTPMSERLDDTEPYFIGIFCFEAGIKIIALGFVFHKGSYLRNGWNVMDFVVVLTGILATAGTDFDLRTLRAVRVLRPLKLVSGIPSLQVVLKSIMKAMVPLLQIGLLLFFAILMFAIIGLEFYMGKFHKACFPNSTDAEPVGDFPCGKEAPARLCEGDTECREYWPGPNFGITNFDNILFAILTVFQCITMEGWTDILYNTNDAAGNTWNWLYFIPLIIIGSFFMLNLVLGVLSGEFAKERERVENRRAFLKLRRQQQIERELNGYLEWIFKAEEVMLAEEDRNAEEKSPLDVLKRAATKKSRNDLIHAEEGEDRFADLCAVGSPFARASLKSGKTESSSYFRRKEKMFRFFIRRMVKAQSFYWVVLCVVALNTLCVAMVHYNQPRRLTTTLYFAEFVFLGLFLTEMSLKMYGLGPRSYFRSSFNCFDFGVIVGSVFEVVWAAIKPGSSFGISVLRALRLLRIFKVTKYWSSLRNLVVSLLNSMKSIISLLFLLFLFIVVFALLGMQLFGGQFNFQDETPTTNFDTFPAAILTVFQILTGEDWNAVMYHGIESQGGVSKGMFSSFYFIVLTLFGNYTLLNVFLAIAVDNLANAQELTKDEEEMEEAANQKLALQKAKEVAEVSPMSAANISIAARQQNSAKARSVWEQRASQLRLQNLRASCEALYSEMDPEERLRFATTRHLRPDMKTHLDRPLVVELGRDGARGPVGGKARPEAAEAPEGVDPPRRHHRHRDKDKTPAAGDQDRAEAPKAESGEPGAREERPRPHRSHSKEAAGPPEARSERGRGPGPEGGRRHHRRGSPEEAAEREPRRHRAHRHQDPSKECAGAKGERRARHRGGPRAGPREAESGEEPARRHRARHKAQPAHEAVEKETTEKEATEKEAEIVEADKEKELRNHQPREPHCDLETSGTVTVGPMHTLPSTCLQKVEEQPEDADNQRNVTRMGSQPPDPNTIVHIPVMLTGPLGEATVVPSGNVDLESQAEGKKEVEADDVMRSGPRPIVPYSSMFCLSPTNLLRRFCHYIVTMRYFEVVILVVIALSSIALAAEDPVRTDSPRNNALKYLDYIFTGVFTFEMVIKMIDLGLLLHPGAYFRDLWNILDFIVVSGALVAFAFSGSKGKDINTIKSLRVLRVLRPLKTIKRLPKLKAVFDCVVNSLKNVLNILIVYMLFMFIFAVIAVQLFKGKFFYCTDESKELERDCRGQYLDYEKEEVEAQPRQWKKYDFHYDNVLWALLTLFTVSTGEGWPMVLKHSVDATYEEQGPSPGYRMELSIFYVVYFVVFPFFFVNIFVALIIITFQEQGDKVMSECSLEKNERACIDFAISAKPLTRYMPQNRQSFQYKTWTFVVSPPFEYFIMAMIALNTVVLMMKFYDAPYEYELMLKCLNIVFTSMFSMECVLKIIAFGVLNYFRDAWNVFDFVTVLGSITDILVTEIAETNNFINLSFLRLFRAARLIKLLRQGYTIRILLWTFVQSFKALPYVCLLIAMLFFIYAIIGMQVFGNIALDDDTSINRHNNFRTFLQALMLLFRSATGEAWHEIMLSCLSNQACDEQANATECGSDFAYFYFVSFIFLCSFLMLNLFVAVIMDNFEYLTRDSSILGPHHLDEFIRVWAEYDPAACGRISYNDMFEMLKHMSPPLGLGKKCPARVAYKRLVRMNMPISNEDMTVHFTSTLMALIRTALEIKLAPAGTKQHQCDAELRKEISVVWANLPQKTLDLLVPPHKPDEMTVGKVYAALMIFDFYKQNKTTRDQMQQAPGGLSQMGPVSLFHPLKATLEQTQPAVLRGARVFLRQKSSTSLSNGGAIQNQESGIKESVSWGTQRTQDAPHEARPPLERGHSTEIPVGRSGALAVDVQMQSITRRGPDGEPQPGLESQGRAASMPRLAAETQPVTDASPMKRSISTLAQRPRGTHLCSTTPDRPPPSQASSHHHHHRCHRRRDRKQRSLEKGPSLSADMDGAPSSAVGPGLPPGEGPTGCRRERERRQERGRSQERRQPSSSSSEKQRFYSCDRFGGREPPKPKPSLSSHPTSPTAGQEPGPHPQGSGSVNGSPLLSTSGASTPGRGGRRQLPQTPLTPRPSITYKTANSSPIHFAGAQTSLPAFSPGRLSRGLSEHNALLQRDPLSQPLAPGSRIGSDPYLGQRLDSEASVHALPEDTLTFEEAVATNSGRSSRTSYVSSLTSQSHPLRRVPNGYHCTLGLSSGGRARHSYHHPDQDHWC
- Sequence (P54284 whole entry partner): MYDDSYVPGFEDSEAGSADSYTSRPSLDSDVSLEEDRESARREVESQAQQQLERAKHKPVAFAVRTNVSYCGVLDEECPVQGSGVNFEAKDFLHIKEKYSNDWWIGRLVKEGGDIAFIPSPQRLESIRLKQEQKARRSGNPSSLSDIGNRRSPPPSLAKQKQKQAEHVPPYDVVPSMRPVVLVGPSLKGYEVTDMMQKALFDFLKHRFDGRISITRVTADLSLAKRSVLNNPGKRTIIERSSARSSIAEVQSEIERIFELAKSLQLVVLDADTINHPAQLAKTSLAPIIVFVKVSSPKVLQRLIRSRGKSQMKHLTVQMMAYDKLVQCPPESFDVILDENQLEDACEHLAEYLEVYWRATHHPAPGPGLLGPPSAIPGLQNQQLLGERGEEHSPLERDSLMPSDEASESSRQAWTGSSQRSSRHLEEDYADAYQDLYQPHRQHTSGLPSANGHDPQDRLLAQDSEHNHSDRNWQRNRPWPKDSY
- Sequence (P54289 25-956 partner limits assumed): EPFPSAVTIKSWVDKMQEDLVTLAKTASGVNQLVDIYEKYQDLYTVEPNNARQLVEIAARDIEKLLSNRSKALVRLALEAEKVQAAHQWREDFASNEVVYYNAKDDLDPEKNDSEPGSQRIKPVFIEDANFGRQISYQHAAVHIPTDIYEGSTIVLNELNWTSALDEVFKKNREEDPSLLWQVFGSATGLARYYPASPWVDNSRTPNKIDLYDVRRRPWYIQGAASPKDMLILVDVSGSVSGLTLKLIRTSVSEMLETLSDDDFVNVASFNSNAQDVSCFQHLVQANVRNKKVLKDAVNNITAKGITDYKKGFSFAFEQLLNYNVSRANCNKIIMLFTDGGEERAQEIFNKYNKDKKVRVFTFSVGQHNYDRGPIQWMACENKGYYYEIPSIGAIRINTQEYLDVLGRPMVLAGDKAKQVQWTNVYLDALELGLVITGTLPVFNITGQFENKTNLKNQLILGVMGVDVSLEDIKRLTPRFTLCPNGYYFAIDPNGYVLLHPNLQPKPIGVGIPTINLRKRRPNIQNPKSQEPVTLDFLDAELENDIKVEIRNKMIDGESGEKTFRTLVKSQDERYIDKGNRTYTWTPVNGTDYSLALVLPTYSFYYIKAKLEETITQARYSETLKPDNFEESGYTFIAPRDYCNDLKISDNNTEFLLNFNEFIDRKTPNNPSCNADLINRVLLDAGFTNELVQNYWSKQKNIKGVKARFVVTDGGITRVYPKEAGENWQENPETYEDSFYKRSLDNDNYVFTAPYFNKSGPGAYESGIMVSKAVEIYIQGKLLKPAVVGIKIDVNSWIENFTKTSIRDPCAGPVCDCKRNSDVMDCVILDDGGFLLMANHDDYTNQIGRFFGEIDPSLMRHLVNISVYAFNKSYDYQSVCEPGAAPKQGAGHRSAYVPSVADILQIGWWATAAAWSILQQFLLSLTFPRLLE
- Sequence (P54289 957-1103 partner limits assumed): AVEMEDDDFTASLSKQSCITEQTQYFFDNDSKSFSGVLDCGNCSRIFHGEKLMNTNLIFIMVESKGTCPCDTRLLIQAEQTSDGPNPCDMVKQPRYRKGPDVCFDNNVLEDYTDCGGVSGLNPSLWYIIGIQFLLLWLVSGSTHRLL
- METHOD: VIPR optical membrane potential assay with electrical stimulation, CaV2.2
- DETAILS: Table 9, CaV 2.2 receptors
pIC50: −log10 of the molar value.
QUANTITY NAME: pIC50

Examples with answers:
# MOLECULE, SYSTEM, RESULT
measured = [
    ("CC1CC(C)CN(C(=O)c2cnc(N3CCOCC3)nc2-c2ccc(C#N)cc2)C1 (stereo not drawn)", "CaV2.2 (Homo sapiens, UniProt Q00975)", "< 5.00"),
    ("CCN(C)C(=O)c1cnc(N2CCOCC2)nc1-c1ccccc1F", "CaV2.2 (Homo sapiens, UniProt Q00975)", "< 5.00"),
    ("COc1cccc(N(C(=O)c2cnc(N3CCCCC3)nc2-c2ccccc2F)C2CC2)c1", "CaV2.2 (Homo sapiens, UniProt Q00975)", "< 5.00"),
    ("CC(C)CN(C)C(=O)c1cnc(NCc2ccc3c(c2)OCO3)nc1-c1ccc(C#N)cc1", "CaV2.2 (Homo sapiens, UniProt Q00975)", "5.00 to 5.70"),
    ("CC(C)CN(C)C(=O)c1cnc(N2CCCC2)nc1-c1ccccc1F", "CaV2.2 (Homo sapiens, UniProt Q00975)", "< 5.00"),
    ("O=C(c1cnc(N2CCCCC2)nc1-c1ccccc1F)N(Cc1ccccc1)C1CC1", "CaV2.2 (Homo sapiens, UniProt Q00975)", "5.00 to 5.70"),
    ("O=C(c1cnc(N2CCOCC2)nc1-c1ccccc1F)N(Cc1ccccc1)C1CCC1", "CaV2.2 (Homo sapiens, UniProt Q00975)", "5.00 to 5.70"),
    ("CC(C)CN(C)C(=O)c1cnc(N2CCOCC2)nc1-c1ccccc1F", "CaV2.2 (Homo sapiens, UniProt Q00975)", "< 5.00"),
    ("CN(C(=O)c1cnc(N2CCOCC2)nc1-c1ccccc1F)C1CCCCC1", "CaV2.2 (Homo sapiens, UniProt Q00975)", "< 5.00"),
    ("O=C(NCCOc1ccccc1)c1cnc(N2CCOCC2)nc1-c1ccc(Oc2ccccc2)cc1", "CaV2.2 (Homo sapiens, UniProt Q00975)", "5.00 to 5.70"),
]

Inquiry: Let me know recorded pIC50 for COc1cccc(N(C(=O)c2cnc(N3CCCCC3)nc2-c2ccccc2F)C2CCCC2)c1 , thanks.
Reply text: 5.00 to 5.70

Inquiry: Let me know recorded pIC50 for COc1cccc(N(C(=O)c2cnc(N3CCCCC3)nc2-c2ccccc2Cl)C2CCCC2)c1 , thanks.
Reply text: 5.00 to 5.70

Inquiry: Let me know recorded pIC50 for CC(C)N(C(=O)c1cnc(N2CCC3CCCCC3C2)nc1-c1ccccc1F)c1ccc2c(c1)OCCO2 (stereo not drawn) , thanks.
Reply text: 5.00 to 5.70

Inquiry: Let me know recorded pIC50 for CN1CCN(c2ncc(C(=O)N(Cc3ccccc3)C3CCCC3)c(-c3ccccc3F)n2)CC1 , thanks.
Reply text: 5.00 to 5.70

Inquiry: Let me know recorded pIC50 for CC1C(NC(=O)c2cnc(N3CCOCC3)nc2-c2ccc(C#N)cc2)CC2CC1C2(C)C (stereo not drawn) , thanks.
Reply text: < 5.00

Inquiry: Let me know recorded pIC50 for CCN(Cc1ccccc1)C(=O)c1cnc(N2CCOCC2)nc1-c1ccccc1F , thanks.
Reply text: < 5.00

Inquiry: Let me know recorded pIC50 for CC(C)N(Cc1cccc(O)c1)C(=O)c1cnc(N2CCOCC2)nc1-c1ccccc1F , thanks.
Reply text: 5.00 to 5.70

Inquiry: Let me know recorded pIC50 for CC(=O)N1CCN(c2ncc(C(=O)N(Cc3ccccc3)C(C)C)c(-c3ccccc3F)n2)CC1 , thanks.
Reply text: < 5.00

Inquiry: Let me know recorded pIC50 for COc1cccc(N(C(=O)c2cnc(N3CCCCC3)nc2-c2ccccc2Cl)C2CCOCC2)c1 , thanks.
Reply text: < 5.00

Inquiry: Let me know recorded pIC50 for CCC(=O)C1(c2ccccc2)CCN(C(=O)c2cnc(N3CCOCC3)nc2-c2ccccc2F)CC1 , thanks.
Reply text: < 5.00

Inquiry: Let me know recorded pIC50 for CC(C)N(Cc1ccc(N2CCCC2)cc1)C(=O)c1cnc(N2CCCCC2)nc1-c1ccccc1Cl , thanks.
Reply text: 5.00 to 5.70

Origin of measurements: patent US8546414B2
